Below is a list of entries, each paired with its recorded TGI value.
- Tested on: HT-29 (CRC)
- Test Method Notes: MTT cell viability assay, HT-29
- Condition Context: HT-29, 48 h
// return numeric value only (unit: µM, not printed)

Some compounds with known TGI results, for comparison:
Need TGI, item `COc1ccc2c(c1)c(CC(=O)[Se]C)c(C)n2C(=O)c1ccc(Cl)cc1`
0.6

Now this one: `C[Se]C(=O)c1ccccc1OC(C)=O`
0.2

Further cases:
Need TGI, item C[Se]C(=O)CC1=C(C)/C(=C/c2ccc([S+](C)[O-])cc2)c2ccc(F)cc21 (stereo not drawn)
3.3

* * *

- System: CACO-2 CRC cells
- Test Method Notes: cells
- Condition Context: Homo sapiens, Caco-2, 72 h
pIC50: −log10 of the molar value.
Readout Kind: pIC50

I'm curious: which pIC50 was measured for COc1ccc2c(c1)c(CC(=O)[Se]C)c(C)n2C(=O)c1ccc(Cl)cc1 [Compound 5a] tested on CACO-2 CRC cells?
5.26

Further cases:
I'm curious: which pIC50 was measured for CC1=C(CC(=O)O)c2cc(F)ccc2/C1=C\c1ccc([S+](C)[O-])cc1 (centres unmarked) [Sulin, sulindac, reference compound] tested on CACO-2 CRC cells?
< 4.30

Now this one: CC[Se]C(=O)CC1=C(C)/C(=C/c2ccc([S+](C)[O-])cc2)c2ccc(F)cc21 (centres unmarked) [Compound 6b]
< 4.30

Now this one: CC[Se]C(=O)Cc1c(C)n(C(=O)c2ccc(Cl)cc2)c2ccc(OC)cc12 [Compound 5b]
< 4.30

Now this one: CC(=O)Oc1ccccc1C(=O)[Se]Cc1ccccc1 [Compound 1c]
4.93

Now this one: C[Se]C(=O)c1ccccc1OC(C)=O [Compound 1a]
6.10

Now this one: COc1ccc2c(c1)c(CC(=O)O)c(C)n2C(=O)c1ccc(Cl)cc1 [Inn, indomethacin, reference compound]
< 4.30

Now this one: CC(=O)Oc1ccccc1C(=O)O [ASA, aspirin, reference compound]
< 4.30
